- assay-name: yeast display, Sf9 membrane polyspecificity reagent, FACS + sequencing; frameworks hold sequencing errors
measure-name: polyreactivity (PSR sort gate)

Solved entries (count: 6):
>>> recorded_value("QVQLVESGGGLVQAGGSLRLSCAASGFIIYYYAMGWYRQAPGKERELVARISRRGGSTYYADSVKGRFTISRDNAKNTVYLQMNSLKPEDTAVYYCNAERRYSWYSQGDYWGQGTQVSVSS")
"high polyreactivity"
>>> recorded_value("QVQLVESGGGLVQAGGSLRLSCAASGRIFHQYAMGWYRQAPGKERELVAAITTRGTSTYYADSVKGRFTISRDNAKNTVYLQMNSLKPEDTAVYYCAAKFFGSVGHVAGDYWGQGTQVTVSS")
"high polyreactivity"
>>> recorded_value("QVQLVESGGGLVQAGGSLPLSCAASGRTFDSYTMGWYRQAPGKERELVAAIRSSGGRTYADSVKGRFTISRDNAKNTVYLQMNSLKPEDTAVYYCAAARSYWAKYYYWGQGTQVTVSS")
"high polyreactivity"
>>> recorded_value("QVQLVESGGGLVQAGGSLRLSCAASGIIFTLYAMGWYRQAPGKERELVATISTGGGTYYADSVKGRFTISRDNAKNTVYLQMNSLKPEDTAVYYCAAKRYWNFRYDYWGQGTQVTVSS")
"high polyreactivity"
>>> recorded_value("QVQLVETGGGLVQAGGSLRLSCAASGRTFHYNVMGWYRQAPGKERELVAAITNTGGSTYYADSVKGRFTISRDNAKNTVYLQMNSLKPEDTAVYYCAAVETLPFDWYYWRYDYWGQGTQVTVSS")
"low polyreactivity"
>>> recorded_value("QVQLVESGGGLVQAGGSLRLSCAASGSIFFYYAMGWYRQAPGKERELVAAINWTGGRTYYADSVKGRFTISRDNAKNTVYLQMNSLKPEDTAVYYWAAEYYGQHDTYEYWGQGTQVTVSS")
"high polyreactivity"

Query block: polyreactivity (PSR sort gate) for QVQLVESWGGLVQAGGSLRLSCAASGGTFGNNDMGWYRQAPGKERELVAAIRSAGTTYYADSVKGRFTISRDNAKNTVYLQMNSLKPEDTAVYYCNADTTGYWSYGFQYYGEDYWGQGTQVTVSS ?
Result block: low polyreactivity

Query block: Here is the next sequence: QVQLVESGGGLVQAGGSLRLSSAASGSIFYGNAMGWYRQAPGKESELVAAISARGGSTNYADSVKGRFTISRDNAKITVYLQMNSLIPEDTAVYYCAAKVRVWYYRMDSWGQGTQVTVSS
Result block: low polyreactivity

Query block: Here is the next sequence: QVQLVESGGGLVQAGGSLRLSCAASGFIFSRYAMGCYSPAPGKVIELVAAISSRGGSTYYADSVKGRFTISRDNAKNTVYLQMNSLKPEDTAVYYCAARGPTFGVDYGYWGQGTQVTLSS
Result block: high polyreactivity

Query block: Here is the next sequence: QVQLVESGGGLVKAGGSLRLSCAASGYTFLFNVMGWYRQAPGKEREIFATIRYSGGSTYYADSVKGRFTISRDNAKNTVYLQMNSLKPEDTAVYYCAARYAWYTSYCSRKYDYWGQGTQVTVSS
Result block: high polyreactivity

Query block: Here is the next sequence: QVQLVESGGGLVQAGGSLRISCAASGITFYGYAMGRYRQAPGKERELVATISKSGGITSYADSVKGRFTISRDNAKNTVYLQMNSLKPEDTAVYYCNRGKSYGGYDYWGQGTQVTVSS
Result block: low polyreactivity

Query block: Here is the next sequence: QVQLVESGGGLVQAGGSLRLSCAASGYIFAGYALGWYRQAPGKERELVARISRRGGITYYADSVKGRFTISRDNAKNTVYLQMNSLKPEDTAVYYCNGLGQSSSYDYWGQGTQVTVSS
Result block: high polyreactivity

Query block: Here is the next sequence: QVQLVESGGGLVQAGGSLRLSCAASGGIFGYYAMGWYRQAPGKERELVAAISYSGGSTYADSVKGRFTISRDNAKNTVYLQMNSLKPEDTAVFYCAARVSSVTRSGFGYWGQGTQVTVSS
Result block: high polyreactivity

Query block: Here is the next sequence: QVQLQESGGGLVQAGGTLRLSCAASGSFSADEDMGWYRQSQGKEREFVAGISVGGNTNYADSVKGRFTISRENAKKTVYLKINCLKPEDTAVYYCRVRLRTSYLLDYWGQGTQVTVSS
Result block: high polyreactivity

Query block: Here is the next sequence: QVQLVESGGGLVQAGGSLRLSCAASGRSIVGYTMGWYTQAPGKERELVAAITSGGSTYYADSVKGRFTISRDNAKNTVYLQMISLKPEDTAVYYCSAYVRYSTPGKLYQYGYWGQGTQVTVSS
Result block: high polyreactivity

Query block: Here is the next sequence: QVQLVESGGGLVQAGGSLRLSCAPSGRTFYINAMGWYRQAPGKEREFVAAITTSGGGTYYADSVKGRFTISRDNAKNTVYLQMNSLKPEDTAVYYCNTRSRRGKDGRYDYWGQGTQVTVSS
Result block: high polyreactivity

Query block: Here is the next sequence: QVQLVESAGGLVQAGGSLRLSCAASGLILHINTMGWYRQAPGKERELVAAISWSGDSTYYADSVKGRFTISRDNAKNTVYLQMNSLKPDDTAVYYCTTDYGHTYLYGYDYWGQGTQVTVSS
Result block: high polyreactivity

Query block: Here is the next sequence: QVQLQESGGGLVQAGGSLRMICAASGYISACRQMGWYRKAPGKEREFVATINGGATTNYADSVKGRFTISRDNAKNSVYLQMNSLKPEDTAVYYCAAVIWYVQDYTYWGQGAQVTVSS
Result block: high polyreactivity
